The following are reported IC50 results, target or system Voltage-gated inwardly rectifying potassium channel KCNH2 (Homo sapiens, UniProt Q12809).

For orientation, consider the following solved cases.
compound: CN1CCC(Oc2ccc(-n3ccc(OCc4ccccc4)cc3=O)cc2)C1 (stereo not drawn)
assay system: Voltage-gated inwardly rectifying potassium channel KCNH2 (Homo sapiens, UniProt Q12809)
Sequence (Q12809 whole entry): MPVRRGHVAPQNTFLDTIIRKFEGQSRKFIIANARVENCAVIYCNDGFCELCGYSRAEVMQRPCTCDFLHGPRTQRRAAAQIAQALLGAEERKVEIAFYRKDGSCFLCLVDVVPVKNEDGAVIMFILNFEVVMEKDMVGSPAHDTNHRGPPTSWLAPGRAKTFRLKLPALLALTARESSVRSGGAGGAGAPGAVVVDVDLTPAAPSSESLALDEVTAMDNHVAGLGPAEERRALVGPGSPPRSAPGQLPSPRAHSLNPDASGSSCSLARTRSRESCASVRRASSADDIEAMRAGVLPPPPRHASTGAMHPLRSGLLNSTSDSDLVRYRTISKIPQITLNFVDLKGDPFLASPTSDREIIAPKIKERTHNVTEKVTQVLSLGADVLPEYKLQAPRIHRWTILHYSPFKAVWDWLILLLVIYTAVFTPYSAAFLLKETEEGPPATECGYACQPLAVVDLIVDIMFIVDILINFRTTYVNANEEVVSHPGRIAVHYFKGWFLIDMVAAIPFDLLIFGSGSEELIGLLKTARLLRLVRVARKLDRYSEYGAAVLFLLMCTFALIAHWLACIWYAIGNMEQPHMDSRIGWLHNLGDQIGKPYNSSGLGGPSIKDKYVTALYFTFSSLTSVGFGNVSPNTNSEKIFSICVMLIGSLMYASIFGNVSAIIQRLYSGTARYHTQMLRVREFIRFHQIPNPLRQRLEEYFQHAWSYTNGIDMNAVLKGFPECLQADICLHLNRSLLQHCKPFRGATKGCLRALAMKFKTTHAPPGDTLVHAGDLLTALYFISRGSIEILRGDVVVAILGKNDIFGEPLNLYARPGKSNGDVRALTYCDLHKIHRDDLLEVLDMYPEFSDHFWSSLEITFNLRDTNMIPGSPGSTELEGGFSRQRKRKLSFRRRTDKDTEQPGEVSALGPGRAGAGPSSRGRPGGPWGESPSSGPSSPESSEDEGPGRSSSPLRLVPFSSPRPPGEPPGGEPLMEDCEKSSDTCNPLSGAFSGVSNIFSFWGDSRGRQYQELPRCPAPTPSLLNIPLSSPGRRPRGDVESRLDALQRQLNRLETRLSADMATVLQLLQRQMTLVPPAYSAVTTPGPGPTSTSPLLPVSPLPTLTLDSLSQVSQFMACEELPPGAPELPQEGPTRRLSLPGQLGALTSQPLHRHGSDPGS
result value: > 10 µM
//
compound: CN(C)CCOc1ccc(-n2ccc(OCc3ccccc3)cc2=O)cc1
assay system: Voltage-gated inwardly rectifying potassium channel KCNH2 (Homo sapiens, UniProt Q12809)
result value: > 10 µM

# ---- query compound ----
Report the value of IC50 obtained on Voltage-gated inwardly rectifying potassium channel KCNH2 (Homo sapiens, UniProt Q12809) for "O=c1cc(OCc2ccccc2)ccn1-c1ccc(OCCN2CCOCC2)cc1" .
> 10 µM

###

# assay system: Melanin-concentrating hormone receptor 1 (Homo sapiens, UniProt Q99705)
# Sequence (Q99705 whole entry): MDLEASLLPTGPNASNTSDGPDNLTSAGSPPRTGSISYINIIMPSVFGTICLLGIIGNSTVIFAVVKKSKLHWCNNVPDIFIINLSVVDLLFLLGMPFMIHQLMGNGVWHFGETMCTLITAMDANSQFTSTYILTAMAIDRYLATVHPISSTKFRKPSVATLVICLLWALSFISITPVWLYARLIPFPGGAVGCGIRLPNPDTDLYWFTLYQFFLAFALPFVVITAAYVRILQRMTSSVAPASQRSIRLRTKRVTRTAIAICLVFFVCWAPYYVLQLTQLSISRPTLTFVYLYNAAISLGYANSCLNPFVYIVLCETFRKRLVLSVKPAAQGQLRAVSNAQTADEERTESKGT
# experiment summary: Displacement of [125I]MCH from human MCHR1 expressed in CHO cells by competition binding assay
# Format: cell-based
Reported pIC50 values for a set of molecules
Notebook: values listed as pIC50 are -log10 of the concentration (mol/L).

For orientation, consider the following solved cases.
molecule: CN1CCC(Oc2ccc(-n3ccc(OCc4ccccc4)cc3=O)cc2)C1 (stereo unspecified)
result value: 7.74
//
molecule: O=c1cc(OCc2ccccc2F)ccn1-c1ccc(OCCN2CCCC2)cc1
result value: 8.06
//
molecule: O=c1cc(OCc2ccc(C(F)(F)F)cc2)ccn1-c1ccc(OCCN2CCCC2)cc1
result value: 8.17

Consider the molecule CN1CCCCC1COc1ccc(-n2ccc(OCc3ccccc3)cc2=O)cc1 (stereo unspecified) . State its measured pIC50.
7.74

Consider the molecule "CCN(CC)CCOc1ccc(-n2ccc(OCc3ccccc3)cc2=O)cc1" . State its measured pIC50.
8.18

Consider the molecule CN1CCCC1COc1ccc(-n2ccc(OCc3ccccc3)cc2=O)cc1 (stereo unspecified) . State its measured pIC50.
7.92

Consider the molecule "O=c1cc(OCc2ccc(Cl)cc2)ccn1-c1ccc(OCCN2CCCC2)cc1" . State its measured pIC50.
8.85

Consider the molecule "O=c1cc(OCc2ccccc2Cl)ccn1-c1ccc(OCCN2CCCC2)cc1" . State its measured pIC50.
7.92

###

# assay system: UniProt Q99705
# experiment summary: Antagonist activity at human MCHR1 expressed in CHO cells assessed as inhibition of MCH-induced intracellular calcium release by FLIPR assay
# Assay type: functional, cell-based
value kind: IC50 (nM)
Just the number please, in nM, no unit attached.

chemical string: O=c1cc(OCc2cccc(F)c2)ccn1-c1ccc(OCCN2CCCC2)cc1
display unit: nM
IC50: 22
//
chemical string: CCN(CC)CCOc1ccc(-n2ccc(OCc3ccccc3)cc2=O)cc1
display unit: nM
IC50: 24

# ---- query molecule ----
Report the value of IC50 obtained on UniProt Q99705 for "O=c1cc(OCc2ccc(Cl)cc2)ccn1-c1ccc(OCCN2CCCC2)cc1" .
17

###

# assay system: Melanin-concentrating hormone receptor 1 (Homo sapiens)
# experiment summary: Displacement of [125I]MCH from human MCHR1 expressed in CHO cells by competition binding assay
# Type: cell-based
pIC50: −log10 of the molar value.
value kind: pIC50

For orientation, consider the following solved cases.
chemical string: O=c1cc(-c2ccc(F)cc2)ccn1-c1ccc(OCCN2CCCCC2)cc1
pIC50: < 6.00
--
chemical string: O=c1cc(Oc2ccc(F)cc2)ccn1-c1ccc(OCCN2CCCCC2)cc1
pIC50: < 6.00

# ---- query compound ----
Consider the compound "CCN(CC)CCN(C(=O)OC)c1ccc(-n2ccc(OCc3ccccc3)cc2=O)cc1" . State its measured pIC50.
< 6.00
